Values were extracted from the PolyMetriX glass transition set.

reportedProperty: glass transition temperature (°C)

>>> assayresult("*c1ccc2c(c1)C(=O)N(c1ccc(N(c3ccc(C#N)cc3)c3ccc(N4C(=O)c5ccc(C(*)(C(F)(F)F)C(F)(F)F)cc5C4=O)cc3)cc1)C2=O (repeat unit)")
321.00
>>> assayresult("*CC(c1ccccc1)C1C(=O)N(c2ccc(Oc3ccccc3)cc2)C(=O)C1* (repeat unit)")
194.00
>>> assayresult("*N=P(*)(C)c1ccccc1 (repeat unit)")
37.00
>>> assayresult("*c1ccc(Oc2ccc(C(=O)c3ccc(Oc4ccc(-c5nc6ccccc6n5-c5ccc(-n6c(*)nc7ccccc76)cc5)cc4)cc3)cc2)cc1 (repeat unit)")
242.00
